B1: tRNA (parent)
chain: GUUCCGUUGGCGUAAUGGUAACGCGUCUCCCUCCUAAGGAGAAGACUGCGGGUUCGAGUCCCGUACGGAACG

Variants of: B1
Experiment: yeast fitness relative to wild type (ratio to wild type); higher = fitter; tRNA-Arg(CCU), competitive growth, 37 C, YPD
This sample holds only a part of the variants without activity.
What yeast fitness was measured for each of the following?

Data request: Recorded yeast fitness of GUUCCGUUGGUGUAAUGGUAACGCGUCUCCCUCCCAAGGAGAAGACUGCGGGUUCGAGUCCCGAACGGAACG [C11U U35C U64A] , please.
Data returned: ≤ 0.5

Data request: Recorded yeast fitness of GUUCCGUUGGCGUAAUGGUAACGCGUCUCCCUCCUAGGGAGAUGACUGCGGGUUCGAGUCCCGUCCGGAACG [A37G A43U A65C] , please.
Data returned: 0.627

Data request: Recorded yeast fitness of GUUCCGUUGACGUGAUGGUAACGCGUCUCCCUCGUAAGGAGAAGACUGCGGGUUCGAGUCCCGUACGGAACG [G10A A14G C34G] , please.
Data returned: ≤ 0.5
